Provenance of the data: PubChem BioAssay (NCI)

Listing of recorded growth inhibition by entry.
# test protocol: NCI Yeast Anticancer Drug Screen. Data for the rad50 strain (AID 155);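 note: 0% = growth of vehicle-only cultures of the same strain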
# settings: S. cerevisiae rad50 strain growth inhibition, active compounds read high; at 50.0 µM unless noted
Compounds without any hit were thinned out: in the full panel of roughly 79,000, 15% have a hit.
Numbers only here, please. The scale is %.

Asked: Please report the recorded growth inhibition for CN1C(=O)C(c2c[nH]c3ccccc23)N(C)C(=O)C1c1c[nH]c2ccccc12 (configuration not stated) .
Given back: -29.9

Let us move to another entry and its growth inhibition.
Asked: Field request: growth inhibition | item: N#CC(C(=O)CCC(=O)NCCc1ccccc1)c1nc2ccccc2s1 (configuration not stated)
Given back: -11.9

* * *

# test protocol: NCI Yeast Anticancer Drug Screen. Data for the sgs1 mgt1 strain (AID 161);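 note: 0% = growth of cultures given vehicle only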
# settings: S. cerevisiae sgs1 mgt1 strain; at 50.0 µM unless noted
The panel holds about 79,000 compounds, 15% with a hit somewhere; the sample as a whole holds those more often. Activity calls are given as the source filed them. Rule as the data show it: active = growth inhibition above about 70%; inactive = the rest.
// one of t for active, f for inactive, no free text

Look over these answered cases.
Asked: Recorded test outcome, item NCC(=O)c1ccc2cc(Br)c3ccccc3c2c1
Given back: f

Asked: Fill in: this test's call for Brc1ccc(-c2ccccc2)cc1 is ___
Given back: f

Asked: // return assay outcome for CC(C)=CCNc1ncnc2c1ncn2CCC(=O)O
Given back: f

---
Asked: Identify the outcome logged in this assay for the compound shown: CC(C)NC(=O)OCc1c(COC(=O)NC(C)C)c(-c2ccccc2)n(C)c1-c1ccccc1
Given back: f

Asked: I'd appreciate the recorded outcome for Cc1nc(-c2ccc(N=Cc3ccc(N4CCC5(CCCCC5)CC4)cc3)cc2)cs1 from this test.
Given back: f

Asked: Hey, what did the test say about O=C1CC2c3ccccc3CCN2C2=C1CCC2 (configuration not stated) ?
Given back: f

Asked: Recorded call for O=C1/C(=C/c2ccc(Cl)cc2)CCC1CN1CCOCC1 (configuration not stated) ?
Given back: t

* * *

# test protocol: NCI Yeast Anticancer Drug Screen. Data for the cln2 rad14 strain (AID 165);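 note: 0% = growth equal to vehicle treated cultures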
# settings: S. cerevisiae cln2 rad14 strain, active compounds read high; at 50.0 µM unless noted
About 79,000 compounds went through this panel and 15% of them were active in at least one assay; those are over-represented in the sample as a whole.
test readout: growth inhibition (%)
Reply numerically in %, unit not repeated.

// solved cases for growth inhibition follow
Asked: For the compound FC(F)(F)c1ccc2ccc3ccc(Cl)cc3c2c1 , what growth inhibition is on record?
Given back: -10.4

Asked: // returns reported growth inhibition for input CC1=C(CCC(=O)O)C(=O)C(CCC(=O)O)C(C)(C)C1 (stereo unspecified)
Given back: 56.6

Asked: State the recorded growth inhibition for this entry: Cc1cc2nc3c(=O)[nH]c(=O)nc-3n(C/C=N/NC(N)=S)c2cc1C
Given back: -45.1

Asked: Recorded growth inhibition for Cc1cc(C(c2ccccc2)n2c3ccccc3c3ccccc32)cc(C)c1O (stereo unspecified) , please?
Given back: 0.25

Asked: # growth inhibition lookup, item O=C(NCCCOC(=O)CCCCCCCCC(=O)OCCCNC(=O)NC(=O)c1c[nH]c(=O)[nH]c1=O)NC(=O)c1c[nH]c(=O)[nH]c1=O
Given back: 8.3

---
Asked: Would you mind telling me what growth inhibition value was observed for CN(Cc1ccccc1)c1cc(=O)n(C)c(=O)[nH]1 ?
Given back: 14
